# System: UACC-257 melanoma
# Experiment: NCI tumour cell line growth inhibition, 48 h
Parameter TGI: see the listing below.

# annotated cases, reported TGI shown
| Molecule | Experimental Readout | Result |
| --- | --- | --- |
| NC(=Nc1ccc(O)cc1)S(=O)(=O)O | TGI | > 100 µM |
| CC12CCC(C(=O)O1)C(C)(C)O2 (stereo unspecified) | TGI | > 100 µM |

Specify TGI for "COc1ccc2c(Nc3ccc(NS(C)(=O)=O)cc3)c3ccccc3nc2c1" and stop.
2.17 µM

Specify TGI for "O=C(O)/C(=C/c1c(O)ccc2ccccc12)c1csc(-c2nc(/C(=C\c3c(O)ccc4ccccc34)C(=O)O)cs2)n1" and stop.
40.9 µM

Specify TGI for CCCCCCCCCCCCCCCCCCNc1ccn(C2OC(COP(=O)(O)OCC3CCC(n4cnc5c(=O)[nH]cnc54)O3)C(O)C2O)c(=O)n1 (stereo unspecified) and stop.
> 100 µM

Specify TGI for "CN(C)c1nc(NC23CC4CC(CC(C4)C2)C3)nc(N(C)C)n1" and stop.
> 100 µM

Specify TGI for "CC1(C)N=C(C(N)=O)c2ncn(CCO)c2N1" and stop.
> 100 µM

---

# Tested on: BT-549 breast
# Experiment: NCI tumour cell line growth inhibition, 48 h
Experimental Readout: TGI

# annotated cases, reported TGI shown
| Compound | TGI |
| --- | --- |
| CC(C)c1ccc(/C(C(=O)O)=C(\O)C(=O)O)cc1 | > 100 µM |
| Nc1ccc(S(=O)(=O)C23CC4CC(CC(C4)C2)C3)cc1 | > 100 µM |
| O=C(NCCCNc1cc(-c2cn(-c3ccccc3)nc2-c2cccc(O)c2)ccn1)c1ccccc1 | 9.47 µM |
| CC[C@@]1(O)C(=O)NCc2c1cc1n(c2=O)Cc2cc3c(N)cccc3nc2-1 | > 100 µM |
| Cn1c(=O)c2c(nc3n(Cc4ccccc4)c(=O)c(NCCBr)cn23)n(C)c1=O | > 100 µM |
| O=C(NCCC(F)(F)C(F)(F)C(F)(F)C(F)(F)F)NC1OC(CO)C(O)C(O)C1O (stereo not given) | > 100 µM |

Using BT-549 breast as the test system, report measured TGI of "Cc1sc2nc(-c3cc([N+](=O)[O-])c(Cl)cc3Cl)c(/C=N/N=C(N)N)n2c1C" .
12 µM

Using BT-549 breast as the test system, report measured TGI of "COc1cc(OC)c2c(O)c3c(cc2c1)CC(C)(C)CC3=O" .
> 100 µM

Using BT-549 breast as the test system, report measured TGI of "CN(C)c1nc(NC23CC4CC(CC(C4)C2)C3)nc(N(C)C)n1" .
> 100 µM

Using BT-549 breast as the test system, report measured TGI of "O=[N+]([O-])c1ccc(N/N=C/c2c(O)ccc3ccccc23)nc1" .
> 100 µM

---

# Test system: MCF7 breast
# Experiment: NCI tumour cell line growth inhibition, 48 h
Experimental Readout: TGI

| Molecule | Result |
| --- | --- |
| CN(C)N1C(=O)c2ccccc2NC1c1ccccc1 (stereo unspecified) | > 100 µM |

In the following, a different molecule is considered.
Specify TGI for COc1ccccc1C1SCC(=O)N1c1ccc(-c2ccc(-n3c(-c4ccccc4)nc4ccccc4c3=O)cc2)cc1 (stereo unspecified) and stop.
> 100 µM
